In this section, each of the compounds is paired with its reported % remaining (60 min).
- Protocol: stability test in liver microsomes (monkey)
- Type: in vitro ADME
- Reported Conditions: 60 min

Compound	% remaining (60 min) (%)
Cc1cc(C[C@@H](NC(=O)N2CCC(c3cc4c([nH]c3=O)SCC4)CC2)C(=O)N2CCN(C3CCN(C)CC3)CC2)cc2cn[nH]c12	61.6
Cc1cc(C[C@@H](NC(=O)N2CCC(c3cc4ccccc4[nH]c3=O)CC2)C(=O)N2CCN(C3CCN(C)CC3)CC2)cc2cn[nH]c12 [Zavegepant, zavegepant, reference compound]	72.1
Cc1cc(C[C@@H](NC(=O)N2CCC(c3cc4c([nH]c3=O)SCCC4)CC2)C(=O)N2CCN(C3CCN(C)CC3)CC2)cc2cn[nH]c12	96.9
[2H]C([2H])([2H])N1CCC(N2CCN(C(=O)[C@@H](Cc3cc(C)c4[nH]ncc4c3)NC(=O)N3CCC(c4cc5c([nH]c4=O)SCC5)CC3)CC2)CC1	98.9
